The reported numbers originate from patent EP4786492A1.

target: human DLL1 protein (Acro, Cat. No. DL1-H52H8) (human) (UniProt O00548); test: ELISA, coated hDLL1; maximum over 0.1, 1, 10, 100 nM antibody
Sequence (O00548 18-540 limits assumed): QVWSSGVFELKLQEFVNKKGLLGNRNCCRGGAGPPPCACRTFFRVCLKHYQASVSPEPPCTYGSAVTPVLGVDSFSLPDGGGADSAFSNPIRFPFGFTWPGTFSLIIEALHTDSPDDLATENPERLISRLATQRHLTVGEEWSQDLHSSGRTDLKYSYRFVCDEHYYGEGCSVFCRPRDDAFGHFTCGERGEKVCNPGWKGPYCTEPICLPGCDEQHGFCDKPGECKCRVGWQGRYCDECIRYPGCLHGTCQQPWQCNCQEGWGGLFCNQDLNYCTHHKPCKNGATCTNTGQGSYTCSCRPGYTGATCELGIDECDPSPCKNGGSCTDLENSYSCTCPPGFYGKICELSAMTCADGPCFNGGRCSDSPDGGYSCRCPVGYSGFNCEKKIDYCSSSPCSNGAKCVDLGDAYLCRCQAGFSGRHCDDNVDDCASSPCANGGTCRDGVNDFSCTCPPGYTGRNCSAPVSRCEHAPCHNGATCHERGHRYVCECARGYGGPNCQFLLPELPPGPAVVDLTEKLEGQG
In this section, each of the binders is paired with its reported Emax of OD450 nm binding value.

- binder: "Hab015VL4VH5a-hFc (scFv, part only; not given: VL-VH linker and human IgG1 Fc, V domains shown, not shown: another chain or arm of the molecule; a dimerising Fc or GST; small tags and cut ends) VL: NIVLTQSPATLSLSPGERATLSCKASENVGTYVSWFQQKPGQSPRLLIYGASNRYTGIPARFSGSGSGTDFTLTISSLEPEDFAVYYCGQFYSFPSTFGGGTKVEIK VH: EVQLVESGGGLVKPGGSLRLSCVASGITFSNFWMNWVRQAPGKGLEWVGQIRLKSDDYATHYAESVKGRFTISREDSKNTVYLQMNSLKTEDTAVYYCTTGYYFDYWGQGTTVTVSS"
  Emax of OD450 nm binding value / OD450 nm: 0.42
- binder: "Hab013VL2VH2a-hFc (scFv, part only; not given: scFv linker and human IgG1 Fc, V domains shown, not shown: another chain or arm of the molecule; a dimerising Fc or GST; small tags and cut ends) VL: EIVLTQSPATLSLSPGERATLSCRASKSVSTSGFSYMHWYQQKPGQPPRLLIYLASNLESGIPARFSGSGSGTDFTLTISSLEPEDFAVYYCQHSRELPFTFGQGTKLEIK VH: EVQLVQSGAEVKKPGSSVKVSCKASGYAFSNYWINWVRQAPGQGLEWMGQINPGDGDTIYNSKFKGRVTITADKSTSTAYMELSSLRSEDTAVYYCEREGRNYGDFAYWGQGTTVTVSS"
  Emax of OD450 nm binding value / OD450 nm: 0.05
- binder: "Hab008L1H2a-hFc (scFv, part only; not given: VL-VH linker and human IgG1 Fc, V domains shown, not shown: another chain or arm of the molecule; a dimerising Fc or GST; small tags and cut ends) VL: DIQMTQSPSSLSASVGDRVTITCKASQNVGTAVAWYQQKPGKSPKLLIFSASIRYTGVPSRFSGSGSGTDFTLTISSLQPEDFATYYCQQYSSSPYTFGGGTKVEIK VH: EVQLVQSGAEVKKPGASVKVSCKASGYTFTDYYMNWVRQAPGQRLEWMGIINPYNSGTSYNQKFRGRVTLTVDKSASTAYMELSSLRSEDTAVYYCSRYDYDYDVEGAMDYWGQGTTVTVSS"
  Emax of OD450 nm binding value / OD450 nm: 0.06
